tested on: UACC-62 melanoma; experiment: NCI tumour cell line growth inhibition, 48 h
TEST READOUT: TGI (µM)
Enter your answer as a number in µM; do not include the unit.

Sample records with TGI:
Data request: So what does the record say about TGI for CSC(=O)C[C@@]12O[C@@H]([C@@H](C)C3CCC4[C@@H]5C(O)CC6=CC(=O)C=C[C@]6(C)C5CC[C@@]43C)C[C@](C)(O1)C(C)(C)O2 (some centres undefined) ?
Data returned: 27

Data request: So what does the record say about TGI for Cc1ccc(OCC2CO2)c(Br)c1 (centres undefined) ?
Data returned: 37.7

Data request: So what does the record say about TGI for CCN1CCN(CCNc2nccc(-c3c(-c4ccc(F)c(O)c4)nc4occn34)n2)S1(=O)=O ?
Data returned: 6.56

Data request: So what does the record say about TGI for CCC1=C(c2ccc(OC)cc2)C(C)(C)Oc2c1ccc(O)c2CN1CCCC1 ?
Data returned: 3.86

Data request: So what does the record say about TGI for COc1ccc2c(c1)c(-c1nc(-c3cn(C)c4ccncc34)cs1)cn2C ?
Data returned: 4.78

---
Data request: So what does the record say about TGI for CCSC[C@@H]1C[C@](O)(c2ccc(Cl)cc2)[C@@H](c2ccc(Cl)cc2)O1 ?
Data returned: 30.8

Data request: So what does the record say about TGI for O=C(OC1=CCN(Br)C1=O)C1=C(O)C(=O)N(Br)C1 ?
Data returned: 36.3

Data request: So what does the record say about TGI for COc1cc2nc(Nc3cccc(Cl)c3)nc(N)c2cc1OC ?
Data returned: 25.7
